# target_desc: protease domain of Endotheliase-2 (ET2) (human) (UniProt Q9BYE2)
# Sequence (Q9BYE2 other isoform, or with tags, fused parts or gaps limits assumed): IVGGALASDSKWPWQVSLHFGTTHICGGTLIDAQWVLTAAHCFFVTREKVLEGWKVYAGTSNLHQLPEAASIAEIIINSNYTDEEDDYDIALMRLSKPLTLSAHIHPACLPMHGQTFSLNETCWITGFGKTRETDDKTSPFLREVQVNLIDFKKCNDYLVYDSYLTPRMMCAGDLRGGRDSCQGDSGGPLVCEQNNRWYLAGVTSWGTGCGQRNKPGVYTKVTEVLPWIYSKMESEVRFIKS
# assay_info: continuous in vitro enzyme assay, inhibition of ET2 protease activity by soluble Fab
measured_parameter: Ki (nM)
Answer with a number only, understood to be in nM.

Q. Given the entry Fab C9 (Fab, V domains shown) VH: EVQLLESGGGLVQPGGSLRLSCAASGFTFSRYPMFWVRQAPGKGLEWVSYISSSGGFTGYADSVKGRFTISRDNSKNTLYLQMNSLRAEDTAVYYCARGGPRGNKYYFDYWGQGTLVTVSS VL: QSVLTQPASVSGSPGQSITISCTGTSSDVGHYNYVSWYQQHPGKAPKVMIYDVSSRPSGVSDRFSGSKSGNTASLAISGLQAEDEADYYCSSYTSGDTLYVFGTGTKVTVLG , report its measured Ki.
A. 0.26

Q. Given the entry Fab D5 (Fab, V domains shown) VH: EVQLLESGGGLVQPGGSLRLSCAASGFTFSRYDMHWVRQAPGKGLEWVSSISSSGGYTAYADSVKGRFTISRDNSKNTLYLQMNSLRAEDTAVYYCARGARGTSQGYWGQGTLVTVSS VL: DIQMTQSPGTLSLSPGERGTLSCRASQFVSYSYLAWYQQKPGQAPRLLIYGASSRAKGIPDRFSGSGSGTDFTLTITRLEPEDFAVYYCQQYVPSVPWTFGQGTKVEVKR , report its measured Ki.
A. 0.07

Please look at the following binder next.
Q. If you can, please state the reported Ki value of Fab D2 (Fab, V domains shown) VH: EVQLLESGGGLVQPGGSLRLSCAASGFTFSRYRMYWVRQAPGKGLEWVSSISPSGGDTRYADSVKGRFTISRDNSQNTLYLQMNSLRAEDTAVYYCARGGPRGNKYYFDYWGQGTLVTVSS VL: DIQMTQSPSSLSASVGDRVTITCRASQTIDNYLNWYQQKPGKAPKLVVYAASTLQTRVPSRFSGSGSGTDFTLTIDSLKPEDFATYFCQQGFSNPWTFGQGTTVAMIR .
A. 0.09

FYI, the data here is from patent US20080019962A1.
